Each item that follows carries a reported pIC50.
system: HT-29; assay: Anticancer activity against human HT-29 cells assessed as cell growth inhibition by crystal violet staining based assay; type: functional
Expect pIC50 as a plain number equal to -log10 of the molar concentration.

O=C1Nc2cc(Br)ccc2[C@@]1(c1cc2ccccc2[nH]1)c1c[nH]c2ccccc12
4.90

Turning to the following compound.
INPUT: Which measured pIC50 value corresponds to O=C1Nc2ccc(Br)cc2[C@@]1(c1cc2ccccc2[nH]1)c1c[nH]c2ccccc12 ?
OUTPUT: 5.10

* * *

system: HeLa; test: Anticancer activity against human HeLa cells assessed as inhibition of cell growth; assay type: functional, cell-based
property.label: pIC50
Expect pIC50 as a plain number equal to -log10 of the molar concentration.

O=C(O)[C@H](O)Cc1c[nH]c2ccc(O)cc12
7.70

INPUT: Which measured pIC50 value corresponds to O=C(O)CCCC#C/C=C/CC/C=C/C#C/C=C/Br ?
OUTPUT: 6.86

INPUT: Which measured pIC50 value corresponds to O=C(O)CCCCCC#C/C=C/CCCCC#C/C=C/Br ?
OUTPUT: 7.06

* * *

tested on: HeLa; experiment: Anticancer activity against human HeLa assessed as inhibition of cell growth incubated for 48 hrs by SRB assay; assay type: functional, cell-based
property.label: pIC50
Expect pIC50 as a plain number equal to -log10 of the molar concentration.

INPUT: Which measured pIC50 value corresponds to CCOC(=O)Cc1c(O)cc(Br)c(O)c1Br ?
OUTPUT: 4.88

* * *

system: SK-BR-3; assay: Anticancer activity against human SK-BR-3 cells assessed as cell growth inhibition incubated for 48 hrs by MTT assay; assay type: functional, cell-based; conditions: SK-BR-3, 48 h
property.label: pIC50
Expect pIC50 as a plain number equal to -log10 of the molar concentration.

INPUT: What pIC50 appears in the records for this compound with SK-BR-3? O[C@]12CCCCCC[C@@H]3CCN4CCC[C@](O)(CCCCCC[C@@H]5CCN(CCC1)[C@H]2O5)[C@@H]4O3
OUTPUT: 4.74

* * *

tested on: MDA-MB-231; experiment: Antimigratory activity against human MDA-MB-231 cells assessed as reduction in cell growth measured after 48 hrs by SRB assay; assay type: functional, cell-based; conditions: MDA-MB-231, 48 h
property.label: IC50 (µM)
Field: numeric (µM). Do not append units.

INPUT: Which measured IC50 value corresponds to COC1=C(Br)C[C@]2(OC=C1Br)ON=C(C(=O)NCCCOc1c(Br)cc(CCNC=C3C(=O)C=CC3=O)cc1Br)[C@@H]2O ?
OUTPUT: 0.31

* * *

system: MDA-MB-231; assay: Anticancer activity against human MDA-MB-231 cells assessed as cell viability measured after 24 hrs by MTT assay; assay type: functional, cell-based; conditions: MDA-MB-231, 24 h
pIC50: −log10 of the molar value.
Think of 5 as a floor: if pIC50 stands on it or above, it is Yes; beneath it, No.

Solved entries:
COC1=C(Br)C[C@]2(OC=C1Br)ON=C(C(=O)NCCCOc1c(Br)cc(CCN)cc1Br)[C@@H]2O
Yes
COC1=C(Br)C[C@]2(OC=C1Br)ON=C(C(=O)NCCCOc1c(Br)cc(CCNC=C3C(=O)C=CC3=O)cc1Br)[C@@H]2O
Yes
CCSc1ccc(/C=C2\NC(=O)NC2=O)cc1
No
COC1=C(Br)[C@H]2OC(=O)C[C@]2(O)C=C1Br
No
COC1=C(Br)C[C@@]2(OC=C1Br)ON=C(C(=O)NCCCOc1c(Br)cc(CCNC(N)=O)cc1Br)[C@H]2O
No

Next, consider the following compound.
INPUT: I'd appreciate it if you could say whether CCOC(=O)NCCCCNC(=O)C1=NO[C@]2(C=C(Br)C(OC)=C(Br)[C@@H]2O)C1 has pIC50 at least equal to 5.
OUTPUT: Yes

* * *

system: HCT-116; assay: Anticancer activity against human HCT-116 cells assessed as inhibition of cell growth incubated for 72 hrs by SRB assay; type: functional, cell-based; details: HCT-116, 72 h
property.label: IC50
Note: a bare number is incomplete; add the unit.

Below, each entry is followed by its recorded IC50 result.
CO[C@H]1C[C@H]2[C@]3(C)CC[C@H]4C(C)(C)CCC[C@]4(C)[C@H]3C[C@@H](OC(C)=O)[C@]2(C)C2=C1[C@@H](O)OC2=O
22.5 µM
CC1(C)CCC[C@]2(C)[C@H]3C[C@@H](O)[C@]4(C)[C@@H](C=O)C(C=O)=CC[C@H]4[C@]3(C)CC[C@@H]12
27.1 µM

Turning to the following molecule.
INPUT: Which measured IC50 value corresponds to CC(=O)O[C@@H]1C[C@@H]2[C@@]3(C)CCCC(C)(C)[C@@H]3CC[C@@]2(C)[C@@H]2C[C@H](O)C3=C([C@H](O)OC3=O)[C@@]12C ?
OUTPUT: 57.5 µM

* * *

system: A549; assay: Anticancer activity against human A549 cells assessed as inhibition of cell growth; type: functional, cell-based
pIC50: −log10 of the molar value.
Each item that follows carries a reported pIC50.

INPUT: Which measured pIC50 value corresponds to CC1=C(CCC(C)(O)/C=C/C[C@@]2(C)CC[C@H]([C@@H](C)C(=O)O)OO2)C(C)(C)CCC1 (some centres undefined) ?
OUTPUT: < 8.62

INPUT: Which measured pIC50 value corresponds to C=C(CCC[C@@]1(C)CC[C@H]([C@@H](C)C(=O)OC)OO1)CCC1(O)C(=C)CCCC1(C)C (some centres undefined) ?
OUTPUT: < 8.62

INPUT: Which measured pIC50 value corresponds to CC1=CCC2C(CC[C@@]2(C)O)C(C)(C)[C@@H]1CC[C@H]1[C@@](C)(O)CCC2OC(C)(C)[C@H](O)CC[C@@]21C (some centres undefined) ?
OUTPUT: 5.05

INPUT: Which measured pIC50 value corresponds to C=C(CCC1=C(C)CCCC1(C)C)C(O)CC[C@@]1(C)CC[C@H]([C@@H](C)C(=O)O)OO1 (some centres undefined) ?
OUTPUT: < 8.62

* * *

tested on: HepG2; assay: Anticancer activity against human HepG2 cells assessed as inhibition of cell growth incubated for 48 hrs by crystal violet staining based microplate reader analysis; assay type: functional; details: HepG2, 48 h
Each item that follows carries a reported IC50.
Field: numeric (nM). Do not append units.

CC1=CCC2C(CC[C@@]2(C)O)C(C)(C)[C@@H]1CC[C@H]1[C@@](C)(O)CCC2OC(C)(C)C(=O)CC[C@@]21C (some centres not stated)
6.9

Turning to the following compound.
INPUT: Which measured IC50 value corresponds to CC(C)[C@]1(O)CC[C@@]2(C)C[C@](O)([C@H]3CC[C@@H]4[C@]3(C)CC[C@H]3OC(C)(C)[C@H](O)C(=O)[C@@H](O)[C@]43C)CC[C@@H]21 ?
OUTPUT: 23

* * *

tested on: HepG2; assay: Anticancer activity against human HepG2 cells assessed as inhibition of cell growth incubated for 96 hrs; type: functional, cell-based; details: HepG2, 96 h
property.label: IC50 (nM)
Field: numeric (nM). Do not append units.

INPUT: Which measured IC50 value corresponds to CC(=O)O[C@@H]1OC=C2C1[C@]1(C)C(C[C@@H]2OC(C)=O)[C@]2(C)CCC3C(C)(C)CCC[C@]3(C)C2C[C@H]1O (stereo partly specified) ?
OUTPUT: 41

* * *

Each item that follows carries a reported pIC50.
test system: HCT-116; experiment: cells; details: Homo sapiens
Description: Anticancer activity against human HCT-116 cells assessed as inhibition of cell growth by MTT assay
Where a name gives a salt, the structure may show the parent alone.
Expect pIC50 as a plain number equal to -log10 of the molar concentration.

CC(=O)O[C@H]1C[C@@H]2[C@@]3(C)CCCC(C)(C)[C@@H]3CC[C@@]2(C)[C@@H]2CC=C(C(C)=O)[C@@H]3[C@@H](O)C[C@@]132
8.77

INPUT: Which measured pIC50 value corresponds to CC(=O)O[C@H]1C[C@H]2[C@@](C)(CCC3C(C)(C)CCC[C@@]32C)[C@@H]2C[C@@H](OC(C)=O)C(C(C)=O)=C[C@@]12C (stereo partly drawn) ?
OUTPUT: 8.57

INPUT: Which measured pIC50 value corresponds to COc1cccc2c1C(=O)c1c(O)c3c(c(O)c1C2=O)C[C@@](O)(C(=O)CO)C[C@@H]3O[C@H]1C[C@H](N)[C@H](O)[C@H](C)O1 [DOXORUBICIN HYDROCHLORIDE] ?
OUTPUT: 8.92

INPUT: Which measured pIC50 value corresponds to CC[C@@]1(C)CCC[C@]2(C)[C@H]3C[C@H](OC(C)=O)[C@]4(C)[C@H]5CO[C@](C)(O)C5CC[C@H]4[C@]3(C)CC[C@@H]12 (stereo partly drawn) ?
OUTPUT: 8.77

INPUT: Which measured pIC50 value corresponds to CC[C@@]1(C)CCC[C@]2(C)[C@H]3C[C@H](OC(C)=O)[C@]45C[C@@H](O)[C@H]4C(C(C)=O)=CC[C@H]5[C@]3(C)CC[C@@H]12 ?
OUTPUT: 8.54

INPUT: Which measured pIC50 value corresponds to CC[C@@]1(C)CCC[C@]2(C)[C@H]3C[C@H](OC(C)=O)[C@]4(C)C=C(C(C)=O)[C@H](OC(C)=O)C[C@H]4[C@]3(C)CC[C@@H]12 ?
OUTPUT: 8.89

INPUT: Which measured pIC50 value corresponds to CC(=O)O[C@H]1C[C@@H]2[C@@]3(C)CCCC(C)(C)[C@@H]3CC[C@@]2(C)[C@@H]2CC=C(C(C)=O)[C@@H]3[C@H](O)C[C@@]132 ?
OUTPUT: 9.22

INPUT: Which measured pIC50 value corresponds to CC(=O)O[C@H]1C[C@H]2[C@@](C)(CC[C@H]3C(C)(C)CCC[C@]23C)[C@@H]2CC=C(C(C)=O)C[C@]21C ?
OUTPUT: 8.74
